The values you see were collected from PubChem BioAssay (NCI).

# Test system: NCI-H522 lung
# PROCEDURE_SUMMARY: NCI tumour cell line growth inhibition, 48 h
VALUE_KIND: TGI

Q. Quick check: TGI of O=C1CC23CC(=O)CC2(C1)c1ccccc1C3=O (centres undefined) ?
A. > 100 µM

Q. Given Cc1ccccc1C(C#N)/C(=N/NC(=O)C(=O)NN)C(=O)Nc1cccc(C(F)(F)F)c1 (centres undefined) , state its recorded TGI.
A. > 100 µM

Q. Sample COc1cc(C2c3cc4c(cc3OC(O)C2C)OCO4)cc(OC)c1O (centres undefined) — what was its TGI?
A. 13.3 µM

Q. Any idea what its TGI is? The compound is O=C(O)c1cn(C2CC2)c2cc(N3CCN(C(=O)Nc4nc(-c5ccc(Cl)cc5)cs4)CC3)c(F)cc2c1=O
A. 9.14 µM

Q. Would you kindly share the measured TGI for CCNC(=O)Cc1nc2c(=O)[nH]cnc2n1C1OC(CO)C(O)C1O (centres undefined) ?
A. > 100 µM

Q. GET /values?readout=TGI&item= CC1=C(C(=O)Nc2ccc(Cl)c(Cl)c2)C(c2cccc(O)c2)NC(=S)N1 (centres undefined)
A. 25.2 µM

Q. Requested field: TGI. Item: O=c1nc2[nH]nc(-c3ccccc3)c2n[nH]1
A. > 100 µM

Q. # TGI lookup, item O=C1/C(=C/c2ccc(O)cc2)CCc2ccccc21
A. 5.61 µM

Q. Look up TGI for this compound: CCCN1CN(C(C(=O)N[C@@H]2C(=O)N3C(C(=O)O)=C(C)CSC23)c2ccccc2)CSC1=S (some centres undefined)
A. > 100 µM

Q. // lookup TGI for CC1(CC(=O)OC(C#C[Si](C)(C)C)Cc2ccccc2)OCCO1 (centres undefined)
A. > 100 µM

Q. Which value of TGI has been reported for CCOC(=O)C(SCCO)C(C(=O)OCC)n1cc(C)c(=O)[nH]c1=O (centres undefined) in the records?
A. 17.6 µM

Q. Looking for the measured TGI of CN(C)N1C(=O)CC2(CCN(CCCC(=O)c3ccc(F)cc3)CC2)C1=O , can you help?
A. > 100 µM

Q. May I ask what TGI has been recorded for Cc1ccc(C(=O)Nc2ccc(CP(=O)(O)O)cc2)cc1NC(=O)Nc1cc(C(=O)Nc2ccc(CP(=O)(O)O)cc2)ccc1C ?
A. > 100 µM

Q. I'd like to know its TGI. The compound in question is COC(=O)c1c/c(=N\NC(=O)CC(=O)Nc2ccc(C)cc2)c2ccccc2o1
A. > 100 µM

###

# Test system: OVCAR-3 ovarian
# PROCEDURE_SUMMARY: NCI tumour cell line growth inhibition, 48 h; in the data active means GI50 below about 0.43 µM; inactive means the rest
Bench note: report the call from 1.0 for active, 0.0 for inactive

These solved cases illustrate the format of a correct answer.
molecule=Cn1cc(-c2nc(-c3cn(C)c4ncccc34)cs2)c2cc(F)ccc21 label_value=1.0
molecule=Cc1cccc2c(=O)c3c(sc12)c(NCCN)nc1ccccc13 label_value=0.0
molecule="COc1ccc(C2SC(C)C(=O)N2NC(=O)C(O)c2ccccc2)cc1 (stereo unspecified)" label_value=0.0

Q. For COc1ccc(/C=C/C(=O)c2ccc(NC(=O)CSc3nnc(-c4cc(OC)c(OC)c(OC)c4)o3)cc2)cc1 , which call appears in the assay record?
A. 0.0

Q. // param item: O=C1[C@H](c2ccccc2)C2c3ccccc3CCN12 (stereo partly specified) ; yields the recorded call
A. 0.0

Q. Please state the recorded outcome for this molecule: O=C(Nc1cc(Cl)cc(Cl)c1)c1ccc(NC2=C(Cl)C(=O)N(Cc3ccccc3)C2=O)cc1
A. 0.0

Q. Just curious, what result did COc1cc2c(cc1C)NC(=O)/C2=C/c1c(C)nc2sc(C)cn12 get here?
A. 0.0

Q. Which outcome was entered for the molecule CCOC(=O)C1=C(N)Oc2cc(OC)ccc2C1c1ccc(F)c(F)c1 (stereo unspecified) in this test?
A. 0.0

###

Catalogue of compounds with associated TGI
# System: OVCAR-8 ovarian
# PROCEDURE_SUMMARY: NCI tumour cell line growth inhibition, 48 h

Q. Report TGI for Cc1nn(C(=O)c2ccncc2)c2c1C(c1ccccc1O)SC(N)=N2 (stereo not given) please.
A. > 10 µM

Q. Could you tell me which TGI is on file for COc1cc2c(/C=C3/C(=O)Nc4c3ccc3ccccc43)c(Cl)[nH]c2cc1C ?
A. 1.82 µM

Q. For the compound O=C(CN1C(=O)c2ccccc2C1=O)OCC1CCCN2CCCCC12 (stereo not given) , what TGI is on record?
A. > 100 µM

Q. Need TGI, item COc1cc2c(cc1C)NC(=O)/C2=C/c1c(C)nc2sc(C)cn12
A. > 100 µM

Q. Quick check: TGI of C#CCOc1c(OC)cc(C(=O)/C(C)=C/c2cccc(N=[N+]=[N-])c2)cc1OC ?
A. > 100 µM

Q. Request the reported TGI associated with Clc1ccc(CSCc2ccc(Cl)cc2Cl)c(Cl)c1
A. > 100 µM

Q. Return reported TGI; argument: O=C1CSc2ccncc2N1
A. > 100 µM

Q. Would you kindly share the measured TGI for Cc1cc(-c2ccc(Cl)cc2)c(C#N)c(=S)n1C1OC(CO)C(O)C(O)C1O (stereo not given) ?
A. > 100 µM

Q. Give the measured TGI of CC(=O)/C=C/c1ccc(N(C)Cc2ccc(C(C)(C)C)cc2)cc1 .
A. 516 µM

Q. If you can, please state the reported TGI value of COc1ccc2c(c1)CC[C@@H]1[C@@H]2CC[C@]2(C)c3c(cc(C(=O)c4ccccc4)c4sccc34)C[C@@H]12 .
A. > 100 µM

###

# Tested on: SN12C renal
# PROCEDURE_SUMMARY: NCI tumour cell line growth inhibition, 48 h
VALUE_KIND: TGI

compound=O=C(Nc1ccc(Cl)cc1Cl)/C(Cl)=C1/Sc2ccccc2NC1=O obs_value="> 100 µM"

Q. Looking for the measured TGI of COc1ccc(/C=C2\CCCC3=C2N=C2SC=NN2C3c2ccc(OC)c(OC)c2)cc1OC (stereo unspecified) , can you help?
A. > 100 µM

Q. Please report the recorded TGI for CC1=C/C(=C(/c2ccc(O)c(C)c2)c2ccccc2C(=O)O)C=CC1=O .
A. 36.7 µM

Q. Item O=c1[nH][nH]c(=S)c(=O)[nH]1 has what recorded TGI?
A. > 100 µM

Q. What value of measured TGI is listed for N=c1c2ccccc2nc2oc3ccc(Cl)cc3n12 ?
A. 61.5 µM

###

# Tested on: T-47D breast
# PROCEDURE_SUMMARY: NCI tumour cell line growth inhibition, 48 h
Form field: TGI (one value per entry).

Solved cases (5 shown):
compound=OCCCNC(=S)Nc1ccc(-c2nc3ccccc3s2)cc1 obs_value="> 100 µM"
compound="CC1=NN(c2ccccc2)C(=O)C1C(=O)C(=O)Nc1ccc(C)cc1C (stereo not given)" obs_value="> 100 µM"
compound="CCOC(=O)c1cc(C2(OC)CCN(Cc3ccccc3)C2=O)c(-c2cc(C)no2)[nH]1 (stereo not given)" obs_value="> 100 µM"
compound=NS(=O)(=O)c1ccc(NCc2cnc3ccccc3c2)cc1 obs_value="> 100 µM"
compound="O=C1[C@H](c2ccccc2)C2c3ccccc3CCN12 (stereo not given in full)" obs_value="> 100 µM"

Q. Look up TGI for this compound: C(#Cc1ccccc1C#Cc1ccccn1)c1ccc(OCCCCCCOc2ccc(C#Cc3ccccc3C#Cc3ccccn3)cc2)cc1
A. 14.1 µM

Q. Name the recorded TGI for Clc1ccc(CSCc2ccc(Cl)cc2Cl)c(Cl)c1 .
A. > 100 µM

Q. Suppose we examine the compound Nc1nc(Cl)cc(NCC2(CO)CCC(OCc3ccccc3)C2)n1 (stereo not given) ; what TGI value has been reported?
A. 52.7 µM

Q. Given the entry COc1cc([C@@H]2c3cc4c(cc3[C@H](O)[C@H]3COC(=O)[C@@H]23)OCO4)cc(OC)c1OC , report its measured TGI.
A. 4.64 µM

Q. Entry under review: CC(=O)/C=C/c1ccc(N(C)Cc2ccc(C(C)(C)C)cc2)cc1 . Reported TGI?
A. 405 µM

Q. Entry under review: Nc1nc(Cl)cc(NCC2(CO)CC(Cc3ccccc3)C2)n1 (stereo not given) . Reported TGI?
A. > 65.4 µM

Q. Recorded TGI for COC(=O)/C(Br)=C/c1c[nH]c2ccc(Br)cc12 , please?
A. 24.5 µM

Q. Look up TGI: COc1cc(OC)nc(NC(=O)NS(=O)(=O)c2cccc3ncn(C)c(=O)c23)n1
A. > 100 µM

Q. So what's the measured TGI for this one? Cc1ccc(S(=O)(=O)C2=C3C(=C(c4ccccc4)c4ccccc43)CN(S(=O)(=O)c3ccc(C)cc3)C2)cc1
A. 31.5 µM

Q. For the compound shown here, CSc1ccc2c(c1)C(=O)c1c-2n(CCCN=[N+]=[N-])c(=O)c2cc([N+](=O)[O-])ccc12 , give the reported TGI.
A. > 100 µM

Q. Item CO[C@H]1C[C@H](O[C@H]2CC[C@]3(C=O)[C@H]4CC[C@]5(C)[C@@H](C6=CC(=O)OC6)CC[C@]5(O)[C@@H]4CC[C@]3(O)C2)O[C@H](C)[C@H]1O[C@@H]1O[C@H](CO[C@@H]2O[C@H](CO)[C@@H](O)[C@H](O)[C@H]2O)[C@@H](O)[C@H](O)[C@H]1O has what recorded TGI?
A. 0.385 µM
